- ASSAYED_SYSTEM: HIV-1 JR-CSF Env I323A (HIV-1 isolate JR-CSF) (UniProt P20871)
- EXPERIMENTAL_DETAILS: cell-based or functional assay
Items are presented alongside their recorded Fold IC50 increase relative to wild-type.
Your answer should be a number followed by the unit of measure.

Give the value of Fold IC50 increase relative to wild-type reported for the following: PGT-126 (antibody, V domains shown) VH: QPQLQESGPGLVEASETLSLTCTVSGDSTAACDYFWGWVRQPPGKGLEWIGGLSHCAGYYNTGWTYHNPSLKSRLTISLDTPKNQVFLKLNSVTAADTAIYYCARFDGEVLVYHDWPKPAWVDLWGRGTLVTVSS VL: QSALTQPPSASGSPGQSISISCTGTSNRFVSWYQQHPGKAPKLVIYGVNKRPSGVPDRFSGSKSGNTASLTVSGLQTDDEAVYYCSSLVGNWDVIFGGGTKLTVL
0.9 fold

Read off the recorded Fold IC50 increase relative to wild-type for PGT-127 (antibody, V domains shown) VH: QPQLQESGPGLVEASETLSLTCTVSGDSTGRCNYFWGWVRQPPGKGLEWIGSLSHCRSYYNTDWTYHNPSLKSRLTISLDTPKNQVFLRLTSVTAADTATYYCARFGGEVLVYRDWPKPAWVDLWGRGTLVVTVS VL: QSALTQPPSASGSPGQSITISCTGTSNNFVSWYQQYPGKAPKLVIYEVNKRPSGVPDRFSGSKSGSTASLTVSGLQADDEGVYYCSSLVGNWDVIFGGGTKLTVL
4 fold
